Tested on: P12-Ichikawa
Assay Comment: cell viability relative to DMSO control; higher = less cytotoxic
Experimental Context: RPMI 5 mM glucose + 10% FBS; 48 h; 0.0632 µM
Exercise: for every item that follows, state its recorded cell viability.
Numbers only, in %.

INSERT INTO assay_data (compound, target_system, endpoint_value) VALUES
  ('O=C1\C=C/C[C@@H]2[C@H]3CCCN4CCC[C@@H](CN12)[C@@H]34', 'P12-Ichikawa', 98.5),
  ('Clc1cc(Cl)cc(CNc2ncncc2-c2ccc3c(c2)OCO3)c1', 'P12-Ichikawa', 96.3),
  ('C[C@@]12O[C@@H](C[C@]1(O)CO)n1c3ccccc3c3c4c(c5c6ccccc6n2c5c31)CNC4=O', 'P12-Ichikawa', 111);

Which measured cell viability value corresponds to CNC1[C@@H](O)C(O[C@@H]2C(O)C(O[C@H]3O[C@H]([C@@H](C)NC)CC[C@H]3N)[C@@H](N)C[C@H]2N)OC[C@]1(C)O (some centres undefined) ?
93

###

System: NOMO1
Assay Comment: cell viability relative to DMSO control; higher = less cytotoxic
Experimental Context: HPLM + 10% dialyzed FBS; 48 h; 0.0632 µM
Exercise: for every item that follows, state its recorded cell viability.
One number for each entry, in %.

INSERT INTO assay_data (cpd_smiles, target_system, endpoint_value) VALUES
  ('NC1=NC=C(C=C1)C2=CC=C3N=CC\4=C(N(C(=O)\C=C4)C5=CC(=CC=C5)C(F)(F)F)C3=C2', 'NOMO1', 41.2);

Fill in cell viability for each of the 2 compounds listed.
1. CC(C)(C)C(=O)OCOP(=O)(COCCn1cnc2c(N)ncnc21)OCOC(=O)C(C)(C)C
2. CCc1c(C(=O)C(N)=O)c2c(OCC(=O)O)cccc2n1Cc1ccccc1

[88.3, 122]

###

Test system: NOMO1
Assay Comment: cell viability relative to DMSO control; higher = less cytotoxic
Experimental Context: HPLM + 10% dialyzed FBS; 48 h; 1.71 µM
Measurement Type: cell viability
Field note: include the unit after the figure.

These recorded examples may help you get a feel for the data.
INSERT INTO results (compound, endpoint_value) VALUES
  ('CNC1[C@@H](O)C(O[C@@H]2C(O)C(O[C@H]3O[C@H]([C@@H](C)NC)CC[C@H]3N)[C@@H](N)C[C@H]2N)OC[C@]1(C)O (stereo partly drawn)', '87.4%'),
  ('OC[C@H](Cc1ccccc1)Nc1nc(Oc2ccc3c(c2)CCC3)nc2c1ncn2Cc1ccc(-c2ccccc2)cc1', '88.6%');

Attention now turns to another entry.
Which measured cell viability value corresponds to `CCC[C@H](N[C@@H](C)C(=O)N1[C@H](C(=O)O)C[C@@H]2CCCC[C@@H]21)C(=O)OCC` ?
89.4%
